Reference source for all entries: ChEMBL document CHEMBL4049421

system: Rattus norvegicus; assay: AUC(0 to 24 hrs) in Sprague-Dawley rat plasma at 10 mg/kg, po measured after 24 hrs by LC-MS/MS analysis; format: ADME, organism-based; set-up: dose 10 mg/kg, time < 24 hr, route oral; conditions: in vivo
Reported Endpoint: AUC (ng·h/mL)
Write down the numeric answer in ng·h/mL and omit the unit.

For the compound `COc1cc2c(cc1OC)CN(CCc1ccc(Nc3nc(-c4ccncc4)nc4ccccc34)cc1)CC2` , report AUC.
3130

----------
system: Rattus norvegicus; experiment: AUC(0 to infinity) in Sprague-Dawley rat plasma at 10 mg/kg, po measured after 24 hrs by LC-MS/MS analysis; format: ADME, organism-based; set-up: dose 10 mg/kg, route oral, time infinity; conditions: in vivo
Reported Endpoint: AUC
Don't forget the unit after the value.

For the molecule `COc1cc2c(cc1OC)CN(CCc1ccc(Nc3nc(-c4ccncc4)nc4ccccc34)cc1)CC2` , report AUC.
3340 ng·h/mL

----------
system: Rattus norvegicus; test: AUC(0 to 24 hrs) in Sprague-Dawley rat plasma at 5 mg/kg, iv measured after 24 hrs by LC-MS/MS analysis; assay type: ADME, organism-based; design: dose 5 mg/kg, time < 24 hr, route intravenous; conditions: in vivo
Reported Endpoint: AUC (ng·h/mL)
Write down the numeric answer in ng·h/mL and omit the unit.

For the compound `COc1cc2c(cc1OC)CN(CCc1ccc(Nc3nc(-c4ccncc4)nc4ccccc34)cc1)CC2` , report AUC.
1660

----------
assay: Elimination half life in Sprague-Dawley rat plasma at 10 mg/kg, po by LC-MS/MS analysis; assay type: ADME, organism-based; conditions: read-out: beta t1/2 (converted)
Reported Endpoint: half-life (min)
Write down the numeric answer in min and omit the unit.

For the compound `COc1cc2c(cc1OC)CN(CCc1ccc(Nc3nc(-c4ccncc4)nc4ccccc34)cc1)CC2` , report half-life.
372

----------
assay: Plasma clearance in Sprague-Dawley rat at 5 mg/kg, iv measured after 24 hrs by LC-MS/MS analysis; format: ADME, organism-based
Reported Endpoint: clearance (mL/min/kg)
Write down the numeric answer in mL/min/kg and omit the unit.

For the molecule `COc1cc2c(cc1OC)CN(CCc1ccc(Nc3nc(-c4ccncc4)nc4ccccc34)cc1)CC2` , report clearance.
47.8

----------
tested on: Rattus norvegicus; assay: AUC(0 to infinity) in Sprague-Dawley rat plasma at 5 mg/kg, iv measured after 24 hrs by LC-MS/MS analysis; format: ADME, organism-based; set-up: dose 5 mg/kg, time infinity, route intravenous; details: in vivo
Reported Endpoint: AUC

For the compound `COc1cc2c(cc1OC)CN(CCc1ccc(Nc3nc(-c4ccncc4)nc4ccccc34)cc1)CC2` , report AUC.
1750 ng·h/mL

----------
species on record: Homo sapiens; assay: Inhibition of P-gp in human K562/A02 cells assessed as potentiation of doxorubicin-induced cytotoxicity by measuring fold reduction in doxorubicin IC50 at 1.0 uM after 48 hrs by MTT assay relative to doxorubicin alone; format: cell-based
# note: exactly 10 is not below, so it is f; use t for fold change (FC) strictly under it

Criterion: fold change (FC) strictly below 10. Is it met by `COc1cc2c(cc1OC)CN(CCc1ccc(Nc3nc(-c4ccncc4)nc4ccccc34)cc1)CC2` ?
f

Criterion: fold change (FC) strictly below 10. Is it met by `COc1cc2c(cc1OC)CN(CCc1ccc(Nc3nc(-c4cccc(C)c4)nc4ccccc34)cc1)CC2` ?
t

Criterion: fold change (FC) strictly below 10. Is it met by `COc1cccc(-c2nc(Nc3ccc(CCN4CCc5cc(OC)c(OC)cc5C4)cc3)c3ccccc3n2)c1` ?
f

Criterion: fold change (FC) strictly below 10. Is it met by `COc1cc2c(cc1OC)CN(CCc1ccc(Nc3nc(-c4ccc([N+](=O)[O-])cc4)nc4ccccc34)cc1)CC2` ?
t

Criterion: fold change (FC) strictly below 10. Is it met by `COc1cc2c(cc1OC)CN(CCc1ccc(Nc3nc(-c4ccc(F)cc4)nc4ccccc34)cc1)CC2` ?
t

Criterion: fold change (FC) strictly below 10. Is it met by `COc1cc2c(cc1OC)CN(CCc1ccc(Nc3nc(-c4ccccc4)nc4cc(Cl)ccc34)cc1)CC2` ?
t

Criterion: fold change (FC) strictly below 10. Is it met by `COc1cc2c(cc1OC)CN(CCc1ccc(Nc3nc(-c4ccc(C)cc4)nc4ccccc34)cc1)CC2` ?
t

Criterion: fold change (FC) strictly below 10. Is it met by `COc1cc2c(cc1OC)CN(CCc1ccc(Nc3nc(-c4ccc(C(C)(C)C)cc4)nc4ccccc34)cc1)CC2` ?
t

Criterion: fold change (FC) strictly below 10. Is it met by `COc1cc2c(cc1OC)CN(CCc1ccc(Nc3nc(-c4ccccc4)nc4ccccc34)cc1)CC2` ?
t

Criterion: fold change (FC) strictly below 10. Is it met by `COc1cc2c(cc1OC)CN(CCc1ccc(Nc3nc(-c4ccc(Cl)cc4)nc4ccccc34)cc1)CC2` ?
t

Criterion: fold change (FC) strictly below 10. Is it met by `COc1cc2c(cc1OC)CN(CCc1ccc(Nc3nc(-c4cccc([N+](=O)[O-])c4)nc4ccccc34)cc1)CC2` ?
f

Criterion: fold change (FC) strictly below 10. Is it met by `COc1cc2c(cc1OC)CN(CCc1ccc(Nc3nc(-c4ccccc4OC)nc4ccccc34)cc1)CC2` ?
f

Criterion: fold change (FC) strictly below 10. Is it met by `COc1cc2c(cc1OC)CN(CCc1ccc(Nc3nc(-c4cccnc4)nc4ccccc34)cc1)CC2` ?
t

Criterion: fold change (FC) strictly below 10. Is it met by `COc1cc2c(cc1OC)CN(CCc1ccc(Nc3nc(-c4ccc5c(c4)OCO5)nc4ccccc34)cc1)CC2` ?
f

Criterion: fold change (FC) strictly below 10. Is it met by `COc1cc2c(cc1OC)CN(CCc1ccc(Nc3nc(-c4ccc5ccccc5n4)nc4ccccc34)cc1)CC2` ?
t

Criterion: fold change (FC) strictly below 10. Is it met by `COc1ccc(-c2nc(Nc3ccc(CCN4CCc5cc(OC)c(OC)cc5C4)cc3)c3ccccc3n2)cc1` ?
t

Criterion: fold change (FC) strictly below 10. Is it met by `COc1ccc(C(=O)Nc2ccccc2C(=O)Nc2ccc(CCN3CCc4cc(OC)c(OC)cc4C3)cc2)cc1OC` ?
f

Criterion: fold change (FC) strictly below 10. Is it met by `COc1ccc(-c2nc(Nc3ccc(CCN4CCc5cc(OC)c(OC)cc5C4)cc3)c3ccccc3n2)cc1OC` ?
f

----------
assay: Elimination half life in Sprague-Dawley rat plasma at 5 mg/kg, iv by LC-MS/MS analysis; assay type: ADME, organism-based; conditions: read-out: beta t1/2 (converted)
Reported Endpoint: half-life (h)
Write down the numeric answer in h and omit the unit.

For the compound `COc1cc2c(cc1OC)CN(CCc1ccc(Nc3nc(-c4ccncc4)nc4ccccc34)cc1)CC2` , report half-life.
5.9

----------
assay: Cytotoxicity against human K562/A02 cells assessed as cell viability at 1.0 uM after 48 hrs by MTT assay (reference value: >99%); format: cell-based; details: read-out: Activity
Field: viability at 48 h, 1 µM. Provide a value for each of the compounds that follow.
Write down the numeric answer in % and omit the unit.

For the compound `COc1cc2c(cc1OC)CN(CCc1ccc(Nc3nc(-c4ccccc4)nc4cc(Cl)ccc34)cc1)CC2` , report viability at 48 h, 1 µM.
95.3

For the compound `COc1cc2c(cc1OC)CN(CCc1ccc(Nc3nc(-c4ccc(C(C)(C)C)cc4)nc4ccccc34)cc1)CC2` , report viability at 48 h, 1 µM.
91.3

For the compound `COc1cc2c(cc1OC)CN(CCc1ccc(Nc3nc(-c4ccc(C)cc4)nc4ccccc34)cc1)CC2` , report viability at 48 h, 1 µM.
94.2

For the compound `COc1cc2c(cc1OC)CN(CCc1ccc(Nc3nc(-c4ccc5ccccc5n4)nc4ccccc34)cc1)CC2` , report viability at 48 h, 1 µM.
92.1

For the compound `COc1cc2c(cc1OC)CN(CCc1ccc(Nc3nc(-c4ccccc4)nc4cc(OC)c(OC)cc34)cc1)CC2` , report viability at 48 h, 1 µM.
97.3

For the compound `COc1cc2c(cc1OC)CN(CCc1ccc(Nc3nc(-c4cccnc4)nc4ccccc34)cc1)CC2` , report viability at 48 h, 1 µM.
97.9

For the compound `COc1ccc(-c2nc(Nc3ccc(CCN4CCc5cc(OC)c(OC)cc5C4)cc3)c3ccccc3n2)cc1` , report viability at 48 h, 1 µM.
85.2

For the compound `COc1cc2c(cc1OC)CN(CCc1ccc(Nc3nc(-c4cccc(C)c4)nc4ccccc34)cc1)CC2` , report viability at 48 h, 1 µM.
92.1

For the compound `COc1cc2c(cc1OC)CN(CCc1ccc(Nc3nc(-c4ccc5c(c4)OCO5)nc4ccccc34)cc1)CC2` , report viability at 48 h, 1 µM.
89.2
